Test system: AncSZ;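 also: 11-residue human phosphosite peptides and single-mutation variants displayed on the E. coli surface, counted by deep sequencing, each peptide's frequency after selection divided by its frequency in the unselected input library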;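 also: frequency after pTyr selection over input frequency; kinase dosed for 20-30% of maximal phosphorylation in three min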
method: phosphorylation enrichment, bacterial display (enrichment ratio); higher = better substrate or ligand; peptides without Tyr show the background
Classification field: enter 1.0 for phosphorylation enrichment values not below 1, 0.0 for values below it.

{"sequence input": "NGPDVYVLPVT [AATK_Y93_L97V]", "label": 1.0}
{"sequence input": "PDDPDYSLVDD [PSTPIP2_Y323_N322D]", "label": 1.0}
{"sequence input": "KVITDYFVDMK [MPP4_Y566_YF]", "label": 0.0}
{"sequence input": "WHHTFYNELCV [ACTC1_Y93_R97C]", "label": 1.0}
{"sequence input": "RREWFYEVIIA [BACE1_Y260_V265A_YF]", "label": 0.0}
{"sequence input": "CRAVKYLQMVG [AVPR2_Y117]", "label": 0.0}

## Task Say whether VFDMLYQLANL [USP24_Y1087] shows phosphorylation enrichment of 1 or more.
## Result 1.0
